Provenance of the data: the supplement of paper PMC10567573

B1: MYOZ1 (parent)
chain: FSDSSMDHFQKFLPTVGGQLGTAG

# Variants of: B1
# assayName: protein stability index of a GFP-peptide fusion (GPS, HEK-293T) (PSI 1-6); higher = more stable;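 note: lentivirally expressed fusions sorted by FACS into six bins by GFP to DsRed ratio, PSI derived from sequencing read proportions per bin multiplied by bin number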
# details: c terminus: a fixed tail appended
Each entry below lists one item and its recorded protein stability index value.

>  <chain>
FSDSSMDHFQKFLPTVGGILGTAG [Q19I]

>  <value>
2.01

$$$$
>  <chain>
FSSSSMDHFQKFLPTVGGQLGTAG [D3S]

>  <value>
1.97

$$$$
>  <chain>
FSDSSIDHFQKFLPTVGGQLGTAG [M6I]

>  <value>
2.04

$$$$
>  <chain>
FSDSSMDHFQKFLPRVGGQLGTAG [T15R]

>  <value>
2.08

$$$$
>  <chain>
FSDSSMDHFQKFLPSVGGQLGTAG [T15S]

>  <value>
2.93

$$$$

Query string: Endpoint output: protein stability index of FSDSSMDHFQKFTPTVGGQLGTAG [L13T] . Value?
Result string: 3.53
